For each of the molecules below, state its GI50.
system: NCI-H23; assay: NCI tumour cell line growth inhibition, 48 h
The source made the active and inactive calls. Rule as the data show it: active = GI50 up to about 1.1 µM and inactive = higher.

Molecule	System Under Test	Measure	Assay Result
c1ccc([S+](c2ccccc2)c2ccc(Sc3ccc([S+](c4ccccc4)c4ccccc4)cc3)cc2)cc1	NCI-H23	GI50	3.06 µM (inactive)
COCN1C(=O)C2CC(/C=C/C(N)=O)=CN2C(=O)c2ccccc21 (stereo not given)	NCI-H23	GI50	> 100 µM (inactive)
O=C(O[C@@H](/C=C/c1ccccc1)P1(=O)N(Cc2ccccc2)[C@H]2CCCC[C@@H]2N1Cc1ccccc1)c1ccccc1	NCI-H23	GI50	2.96 µM (inactive)

I need GI50 for every entry listed below, if you could help.
1. CC(C)(CN)CN
2. O=S(=O)(c1ccccc1)C(c1ccc2ccccc2n1)S(=O)(=O)c1ccccc1
3. COc1c(OC)c(OC)c(-c2cc(=O)c3c(OC)c(OC)c(OC)c(OC)c3o2)c(OC)c1OC
4. CC1=C2c3ccccc3N(S(=O)(=O)c3ccccc3)[C@H]2[C@H](C(=O)N2C3CC4CC[C@@]3(CS2(=O)=O)C4(C)C)CC1 (stereo not given in full)
5. Cc1ccc(NCCN(C)C)c2c(=O)c3cc(O)ccc3oc12
6. O=[N+]([O-])/C(Cl)=C(/C(Cl)=C(Cl)Cl)N1CCCCC1

result:
1: > 100 µM (inactive); 2: > 100 µM (inactive); 3: 22.2 µM (inactive); 4: 40.6 µM (inactive); 5: 12.6 µM (inactive); 6: 8.49 µM (inactive)
